Assay: qHTS assay to test for compound auto fluorescence at 460 nm (blue) in HepG2 cells (AID 720687); also: % is scaled to controls: 0 for no effect and ±100 for the full control effect
Settings: autofluorescence 405/460 nm, 1 h; series mostly up to 91.3 µM
Calls of active or inactive are those of the source. Calls follow the shape of the dose curve; as a rule, active = well fitted curve in the direction sought with a large enough effect in the repeat runs; inconclusive = weak or mixed curves; inactive = flat fitted curve, though single readings scatter.
parameter: fluorescence, % of fluorescent control

{"molecule": "CCOC(=O)c1ccc(C2CCC(NC[C@H](O)COc3ccc(O)c(NS(C)(=O)=O)c3)CC2)cc1 (stereo partly specified)", "experimental result": "inactive"}
{"molecule": "O=C(O)Cc1ccccc1Nc1c(Cl)cccc1Cl", "experimental result": "inactive"}
{"molecule": "CCCCCCCC", "experimental result": "inactive"}
{"molecule": "Nc1nc(-c2ccccc2)cs1", "experimental result": "inactive"}

Ask: What does the data say about its fluorescence, % of fluorescent control? Entry: CC(=O)Oc1cc2c(s1)CCN(C(C(=O)C1CC1)c1ccccc1F)C2 (stereo unspecified)
Reply: inactive

Ask: Likewise for CC(=O)OCC=C(C)C ?
Reply: inactive

Ask: Would you kindly repeat that for CCCCCCCCCCCCOC(=O)c1ccc(O)cc1 ?
Reply: inactive

Ask: How about this molecule: Sc1nc2ccccc2s1
Reply: inactive

Ask: Subsequent entry: C#CC1(O)CC[C@H]2[C@@H]3CCC4=CCCC[C@@H]4[C@H]3CC[C@@]21C (stereo partly specified)
Reply: inactive

Ask: Ok, now CC1(C)[C@@H](O)CC[C@]2(C)[C@H]3C(=O)C=C4[C@@H]5C[C@@](C)(C(=O)O)CC[C@]5(C)CC[C@@]4(C)[C@]3(C)CC[C@@H]12
Reply: inactive

Ask: For Nc1nc2c(ncn2COCCO)c(=O)[nH]1 then?
Reply: 0.176% [at 18.6 µM] (inactive)

====

Assay: qHTS assay to identify small molecule agonists of the androgen receptor (AR) signaling pathway in the presence of an antagonist - cell viability counter screen (AID 1259379); also: nearly all actives have a fitted effect of over 25% in size
Conditions: MDA-kb2 viability, CellTiter-Fluor, 16 h; series mostly up to 92.4 µM
Results filed as inconclusive are left out. The source made the active and inactive calls. The call rests on the fitted dose curve; in most records, active means well fitted cell-killing curve with a large enough effect in the repeat runs; inconclusive means weak or mixed curves, or effect the other way; inactive means flat fitted curve, though single readings scatter.
Your answer must be one of the following: active, inactive

Here are 5 compounds together with their reported answers.
{"record smiles": "CC[N+](CC)(CC)CCOC(=O)C(C1CCCC1)C1CCCC1", "class": "active"}
{"record smiles": "COc1cccc(OC)c1C(=O)O", "class": "inactive"}
{"record smiles": "O=C(/C=C/c1ccccc1)OC/C=C/c1ccccc1", "class": "inactive"}
{"record smiles": "C=C(C)C(=O)OCCCCCCCCCC", "class": "inactive"}
{"record smiles": "Cc1ccc(O)c(N)c1", "class": "inactive"}

Ask: Name the outcome recorded for Nc1nc(-c2ccccc2)cs1 in the assay.
Reply: inactive

Ask: One more compound: Cc1cc(-c2ccc(N=Nc3cc(S(=O)(=O)O)c4ccccc4c3N)c(C)c2)ccc1N=Nc1cc(S(=O)(=O)O)c2ccccc2c1N
Reply: active

Ask: Same read-out for Cc1c(C)c([N+](=O)[O-])c(C(C)(C)C)c([N+](=O)[O-])c1C ?
Reply: inactive

Ask: Please give the result for CCOC(=O)Cn1cccc1-c1nc(-c2ccc(OC)cc2)c(-c2ccc(OC)cc2)s1 too.
Reply: inactive

Ask: Repeat for the following compound: CC(C)OC(=O)C(O)(CC(=O)O)CC(=O)O
Reply: inactive

Ask: Next entry: Cc1ccc(N/N=c2\c(=O)cc/c(=N\Nc3ccc(S(=O)(=O)O)cc3)c2=O)c(C)c1
Reply: active
